The measured values listed here are drawn from ChEMBL document CHEMBL1201862.

# Tested on: RPMI-8226
# assay_comment: NCI tumour cell line growth inhibition, 48 h
Calls of active or inactive are those of the source. Cut-off read from the data, not from the text of the source: active = GI50 up to about 1.1 µM and inactive = higher.
Respond only with the outcome that fits, drawn from TRUE (active), FALSE (inactive)

What did the test return for Cc1ccc(-c2c(N)[n+]([O-])c3ccccc3[n+]2[O-])cc1 ?
FALSE

What did the test return for C=C1CCC[C@@H](C)C(O)[C@@H]2OC(=O)C(=C)[C@@H]2C[C@@H](OC(C)=O)[C@@]2(C)CC[C@@H]1O2 (stereo partly drawn) ?
FALSE

====

# Tested on: SNB-19
# assay_comment: NCI tumour cell line growth inhibition, 48 h
Activity calls are given as the source filed them. Rule as the data show it: active = GI50 up to about 1.1 µM and inactive = higher.
Respond only with the outcome that fits, drawn from active, inactive

What did the test return for N#CSc1[nH]cnc1C(N)=O ?
inactive

Now take the following molecule into account.
What did the test return for CCCC(=O)C1=C(O)C(Cc2c(O)c(C)c(O)c(C(=O)CCC)c2O)=C(O)C(C)(C)C1=O ?
inactive
